Where do these numbers come from? They come from paper doi:10.1101/2021.03.15.435551.

# assayed-system: SARS-CoV-2 PL^pro (PL^pro; PL^pro-His) (Severe acute respiratory syndrome coronavirus 2)
# test-summary: FRET peptide cleavage assay
# measurement-conditions: Dabcyl-FTLRGG/APTKV-Edans substrate, 200 nM PLpro
readout-name: pIC50
API: returns pIC50 as number; meaning -log10 of concentration in mol/L.

Prompt: Send back SARS-CoV-2 PL^pro (PL^pro; PL^pro-His) (Severe acute respiratory syndrome coronavirus 2) pIC50 of CC(c1ccccc1Cl)N(C)Cc1cc(O)ccc1Cl (centres unmarked) [Jun9-13-7] only.
Completion: 5.14

Prompt: Send back SARS-CoV-2 PL^pro (PL^pro; PL^pro-His) (Severe acute respiratory syndrome coronavirus 2) pIC50 of C[C@H](c1cccc2ccccc12)N(C)Cc1cccc2[nH]ccc12 [Jun9-75-4] only.
Completion: 6.21

Prompt: Send back SARS-CoV-2 PL^pro (PL^pro; PL^pro-His) (Severe acute respiratory syndrome coronavirus 2) pIC50 of Cc1ccc(N)cc1CN(C)[C@H](C)c1cccc2ccccc12 [Jun9-53-2] only.
Completion: 6.05
